biological target: PDGF-Rβ (Homo sapiens, UniProt P09619); assay: Cellular Receptor Tyrosine Kinase Assay (autophosphorylation, sandwich ELISA); type: cell-based; parameters: host or cells: unnamed cell line; details: ligand-induced receptor autophosphorylation in cells
Sequence (P09619 33-1106, species assumed): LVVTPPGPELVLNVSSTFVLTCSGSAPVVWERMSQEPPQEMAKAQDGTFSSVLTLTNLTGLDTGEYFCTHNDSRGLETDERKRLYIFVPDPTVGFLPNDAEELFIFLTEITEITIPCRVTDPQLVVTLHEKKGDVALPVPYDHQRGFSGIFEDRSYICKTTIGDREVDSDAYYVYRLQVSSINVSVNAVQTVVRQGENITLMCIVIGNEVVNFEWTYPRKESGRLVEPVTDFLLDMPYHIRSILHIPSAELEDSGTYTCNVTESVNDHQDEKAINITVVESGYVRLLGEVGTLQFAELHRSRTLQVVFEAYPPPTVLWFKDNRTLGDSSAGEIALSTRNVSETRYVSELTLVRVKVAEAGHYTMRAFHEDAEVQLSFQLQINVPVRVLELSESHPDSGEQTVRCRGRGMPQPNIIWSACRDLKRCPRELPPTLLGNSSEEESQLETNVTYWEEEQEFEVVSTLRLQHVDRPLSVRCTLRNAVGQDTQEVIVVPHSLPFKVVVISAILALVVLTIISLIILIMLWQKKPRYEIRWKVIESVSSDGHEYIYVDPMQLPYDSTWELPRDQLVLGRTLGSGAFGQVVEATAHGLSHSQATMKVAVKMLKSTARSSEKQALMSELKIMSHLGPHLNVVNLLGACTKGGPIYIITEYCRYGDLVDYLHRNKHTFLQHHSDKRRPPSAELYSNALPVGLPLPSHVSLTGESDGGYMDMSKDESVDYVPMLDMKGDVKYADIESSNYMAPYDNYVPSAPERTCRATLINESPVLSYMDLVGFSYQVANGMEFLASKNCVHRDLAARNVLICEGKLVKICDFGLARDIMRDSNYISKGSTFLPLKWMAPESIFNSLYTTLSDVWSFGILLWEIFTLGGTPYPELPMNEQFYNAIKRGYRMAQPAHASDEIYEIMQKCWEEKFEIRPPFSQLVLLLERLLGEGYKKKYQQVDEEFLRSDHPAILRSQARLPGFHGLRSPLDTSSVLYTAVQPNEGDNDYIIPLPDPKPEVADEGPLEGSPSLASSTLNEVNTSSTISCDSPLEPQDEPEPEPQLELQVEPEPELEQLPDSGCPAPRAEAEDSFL
ENDPOINT_LABEL: pIC50
For clarity, pIC50 is expressed as the negative log10 of concentration in mol/L.

# return recorded pIC50 for input `COc1cc2c(Nc3ncc(CCNC(=O)c4cccc(F)c4)s3)ncnc2cc1OCCCN1CCCC1`
5.96

====

pIC50 reference
target: UniProt P35968; experiment: In vitro protein kinase assay (radioisotopic 33P, FlashPlate); format: biochemical; parameters: made in house; host or cells: Sf9 insect cells (baculovirus); conditions: recombinant human kinase
Sequence (P35968 20-1356): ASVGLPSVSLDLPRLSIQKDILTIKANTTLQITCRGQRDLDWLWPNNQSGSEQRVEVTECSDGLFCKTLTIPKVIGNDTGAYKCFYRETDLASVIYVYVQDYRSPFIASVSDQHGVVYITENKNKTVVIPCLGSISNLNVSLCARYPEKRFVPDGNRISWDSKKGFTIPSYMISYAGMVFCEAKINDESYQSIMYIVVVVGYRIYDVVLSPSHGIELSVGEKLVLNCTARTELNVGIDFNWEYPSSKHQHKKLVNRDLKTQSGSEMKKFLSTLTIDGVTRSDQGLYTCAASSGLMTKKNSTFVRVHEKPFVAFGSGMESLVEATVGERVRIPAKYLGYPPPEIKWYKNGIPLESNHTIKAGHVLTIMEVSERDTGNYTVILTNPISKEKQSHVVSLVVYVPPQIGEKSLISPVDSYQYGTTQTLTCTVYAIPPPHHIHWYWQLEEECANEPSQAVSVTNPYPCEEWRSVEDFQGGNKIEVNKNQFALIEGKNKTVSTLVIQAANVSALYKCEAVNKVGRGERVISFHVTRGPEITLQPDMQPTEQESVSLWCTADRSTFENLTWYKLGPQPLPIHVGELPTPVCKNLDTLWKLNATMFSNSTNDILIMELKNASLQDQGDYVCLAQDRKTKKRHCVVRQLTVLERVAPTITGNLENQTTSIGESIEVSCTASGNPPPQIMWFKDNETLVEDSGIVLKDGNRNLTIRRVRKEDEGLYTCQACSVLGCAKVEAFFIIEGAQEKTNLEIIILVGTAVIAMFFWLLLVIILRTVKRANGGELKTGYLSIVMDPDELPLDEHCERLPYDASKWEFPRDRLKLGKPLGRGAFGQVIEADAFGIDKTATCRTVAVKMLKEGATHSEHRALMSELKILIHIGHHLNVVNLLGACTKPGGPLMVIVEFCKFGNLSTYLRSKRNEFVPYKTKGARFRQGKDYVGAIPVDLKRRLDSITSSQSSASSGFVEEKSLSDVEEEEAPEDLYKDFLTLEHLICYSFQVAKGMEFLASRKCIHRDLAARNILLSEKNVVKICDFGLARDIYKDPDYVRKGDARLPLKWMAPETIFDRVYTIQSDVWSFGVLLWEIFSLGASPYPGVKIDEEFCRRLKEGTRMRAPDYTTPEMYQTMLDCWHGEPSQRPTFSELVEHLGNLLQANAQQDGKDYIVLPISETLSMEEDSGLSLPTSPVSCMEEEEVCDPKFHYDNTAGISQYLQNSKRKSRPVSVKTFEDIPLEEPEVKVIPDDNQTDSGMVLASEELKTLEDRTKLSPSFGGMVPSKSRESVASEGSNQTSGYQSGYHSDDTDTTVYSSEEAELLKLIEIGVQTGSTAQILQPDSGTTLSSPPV
FYI, pIC50 means -log10 of a concentration in mol per litre.

Solved cases below.
{"columns": ["GIVEN_SMILES", "TGT", "pIC50"],
 "data": [
  ["COc1cc2ncnc(Nc3ncc(CCC(=O)Nc4ccc(F)cc4)s3)c2cc1OC", "UniProt P35968", 6.02],
  ["COc1cc2c(Nc3ncc(CCC(=O)Nc4cccc(F)c4)s3)ncnc2cc1OCCCN1CCCC1", "UniProt P35968", 7.19],
  ["COc1cc2c(Nc3ncc(CCNC(=O)c4cccc(F)c4)s3)ncnc2cc1OCCCN1CCCC1", "UniProt P35968", 5.59]
]}

For the next question, use this compound.
Provide pIC50, recorded with UniProt P35968, of `COc1cc2ncnc(Nc3ncc(CCC(=O)Nc4cccc(F)c4)s3)c2cc1OC`
5.82

====

molecular target: RET (Homo sapiens, UniProt P07949); assay: In vitro protein kinase assay (radioisotopic 33P, FlashPlate); settings: recombinant human kinase
Sequence (P07949 29-1114): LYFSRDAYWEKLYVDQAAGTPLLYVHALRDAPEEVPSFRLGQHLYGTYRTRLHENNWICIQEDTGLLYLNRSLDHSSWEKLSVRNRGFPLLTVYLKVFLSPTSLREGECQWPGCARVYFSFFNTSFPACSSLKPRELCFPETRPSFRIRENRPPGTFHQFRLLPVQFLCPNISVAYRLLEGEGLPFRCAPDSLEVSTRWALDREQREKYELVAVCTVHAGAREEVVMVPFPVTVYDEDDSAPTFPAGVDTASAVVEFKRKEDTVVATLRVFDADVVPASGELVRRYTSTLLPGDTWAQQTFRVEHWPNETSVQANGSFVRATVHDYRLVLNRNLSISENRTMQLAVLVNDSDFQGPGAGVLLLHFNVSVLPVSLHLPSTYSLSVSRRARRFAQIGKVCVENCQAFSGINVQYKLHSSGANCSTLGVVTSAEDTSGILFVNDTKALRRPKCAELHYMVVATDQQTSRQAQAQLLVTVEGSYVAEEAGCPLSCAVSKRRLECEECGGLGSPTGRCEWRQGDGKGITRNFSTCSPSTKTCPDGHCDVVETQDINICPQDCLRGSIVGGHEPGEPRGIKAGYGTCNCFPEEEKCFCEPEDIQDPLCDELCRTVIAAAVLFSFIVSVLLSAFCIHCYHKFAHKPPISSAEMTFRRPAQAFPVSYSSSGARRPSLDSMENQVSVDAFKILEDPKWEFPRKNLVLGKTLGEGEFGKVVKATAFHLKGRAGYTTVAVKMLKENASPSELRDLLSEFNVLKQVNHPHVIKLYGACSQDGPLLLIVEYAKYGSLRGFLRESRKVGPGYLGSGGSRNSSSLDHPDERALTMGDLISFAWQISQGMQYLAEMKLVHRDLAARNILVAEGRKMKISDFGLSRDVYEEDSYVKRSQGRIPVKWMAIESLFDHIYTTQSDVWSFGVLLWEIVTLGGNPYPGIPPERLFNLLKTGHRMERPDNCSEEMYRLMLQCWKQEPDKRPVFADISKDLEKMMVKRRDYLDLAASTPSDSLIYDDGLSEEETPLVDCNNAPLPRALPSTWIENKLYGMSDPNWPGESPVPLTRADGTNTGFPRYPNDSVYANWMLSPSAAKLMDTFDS
ENDPOINT_LABEL: IC50 (nM)
Return type: number; implicit unit nM.

State IC50 on RET (Homo sapiens, UniProt P07949). Entry: COc1cc2c(Nc3ncc(CCC(=O)Nc4ccc(F)cc4)s3)ncnc2cc1OCCCN1CCCC1 [Compound 9]
880

====

molecular target: Aurora B (Homo sapiens, UniProt Q96GD4); test: In vitro protein kinase assay (radioisotopic 33P, FlashPlate); type: biochemical; design: made in house; host or cells: Sf9 insect cells (baculovirus); conditions: recombinant human kinase
Sequence (Q96GD4 whole entry): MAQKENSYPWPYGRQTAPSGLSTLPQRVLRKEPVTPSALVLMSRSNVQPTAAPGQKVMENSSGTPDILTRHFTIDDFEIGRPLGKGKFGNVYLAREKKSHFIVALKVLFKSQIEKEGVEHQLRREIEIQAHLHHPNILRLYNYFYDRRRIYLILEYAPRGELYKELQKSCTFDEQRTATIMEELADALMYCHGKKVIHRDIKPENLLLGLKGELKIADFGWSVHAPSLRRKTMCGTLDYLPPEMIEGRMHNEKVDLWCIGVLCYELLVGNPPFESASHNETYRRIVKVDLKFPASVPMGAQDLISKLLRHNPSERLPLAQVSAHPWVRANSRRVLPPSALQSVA
ENDPOINT_LABEL: pIC50
Notebook: values listed as pIC50 are -log10 of the concentration (mol/L).

{"columns": ["COMPOUND", "pIC50"],
 "data": [
  ["COc1cc2ncnc(Nc3ncc(CCC(=O)Nc4ccc(F)cc4)s3)c2cc1OC [Compound 8]", 5.64],
  ["COc1cc2c(Nc3ncc(CCNC(=O)c4ccccc4)s3)ncnc2cc1OCCCN1CCCC1 [Compound 2]", 6.21]
]}

Read the next record carefully.
Annotate the compound COc1cc2c(Nc3ncc(CCC(=O)Nc4cccc(F)c4)s3)ncnc2cc1OCCCN1CCCC1 [Compound 5] with its measured pIC50.
6.21

====

biological target: PDGF-Rβ (Homo sapiens, UniProt P09619); test: In vitro protein kinase assay (radioisotopic 33P, FlashPlate); type: biochemical; parameters: made in house; host or cells: Sf9 insect cells (baculovirus); conditions: recombinant human kinase
Sequence (P09619 33-1106): as the sequence (P09619 33-1106, species assumed) above
ENDPOINT_LABEL: IC50 (µM)
State just the number; it will be interpreted in µM.

{"columns": ["GIVEN_SMILES", "TGT", "ENDPOINT_LABEL", "VALUE"],
 "data": [
  ["COc1cc2c(Nc3ncc(CCC(=O)Nc4cccc(F)c4)s3)ncnc2cc1OCCCN1CCCC1", "PDGF-Rβ (Homo sapiens, UniProt P09619)", "IC50", 0.56],
  ["COc1cc2c(Nc3ncc(CCNC(=O)c4ccccc4)s3)ncnc2cc1OCCCN1CCCC1", "PDGF-Rβ (Homo sapiens, UniProt P09619)", "IC50", 15],
  ["COC(=O)CCc1cnc(Nc2ncnc3cc(OC)c(OC)cc23)s1", "PDGF-Rβ (Homo sapiens, UniProt P09619)", "IC50", 11],
  ["COc1cc2ncnc(Nc3ncc(CCC(=O)Nc4cccc(F)c4)s3)c2cc1OC", "PDGF-Rβ (Homo sapiens, UniProt P09619)", "IC50", 41],
  ["COc1cc2ncnc(Nc3ncc(CCC(=O)Nc4ccc(F)cc4)s3)c2cc1OC", "PDGF-Rβ (Homo sapiens, UniProt P09619)", "IC50", 27],
  ["COc1cc2c(Nc3ncc(CCC(=O)Nc4ccc(F)cc4)s3)ncnc2cc1OCCCN1CCCC1", "PDGF-Rβ (Homo sapiens, UniProt P09619)", "IC50", 1.1]
]}

Continue with the next molecule.
Name the recorded IC50 of the molecule listed here: `COc1cc2c(Nc3ncc(CCNC(=O)c4cccc(F)c4)s3)ncnc2cc1OCCCN1CCCC1`
11
